The molecules below have reported Ki for Human cathepsin L (Homo sapiens).

>>> measured("CC[C@H](NC(=O)[C@H](CS(=O)(=O)CC1CC1)NCC(F)(F)Oc1ccc(F)cc1)C(=O)C(=O)NC1CC1")
"< 1000 nM"

IN: Name the recorded Ki for CC#C[C@H](N[C@@H](CS(=O)(=O)Cc1cccnc1)C(=O)NC1(C#N)CC1)C(F)(F)Oc1ccc(S(C)(=O)=O)cc1 .
OUT: > 1000 nM

IN: Next record, please: CC[C@H](NC(=O)[C@H](CC(F)(F)CC1CC1)NCC(F)(F)Oc1ccc(F)cc1)C(=O)C(=O)NC1CC1
OUT: < 100 nM

IN: Moving on to the next molecule: CC#C[C@H](N[C@@H](CSCC1CC1)C(=O)NC1(C#N)CC1)C(F)(F)Oc1ccc(SC)cc1
OUT: > 1000 nM

IN: # iterate: CC#C[C@H](N[C@@H](CS(=O)(=O)Cc1ccc[n+]([O-])c1)C(=O)NC1(C#N)CC1)C(F)(F)Oc1ccc(S(C)(=O)=O)cc1
OUT: > 1000 nM

IN: Repeat for the following molecule: CC#C[C@H](N[C@@H](CS(=O)(=O)CC1CC1)C(=O)NC1(C#N)CC1)C(F)(F)Oc1ccc(S(C)(=O)=O)cc1
OUT: > 1000 nM

IN: Entry to check: CC#C[C@H](N[C@@H](CSCc1ccccn1)C(=O)NC1(C#N)CC1)C(F)(F)Oc1ccc(SC)cc1
OUT: > 1000 nM

IN: Item: CC[C@H](NC(=O)[C@H](CS(=O)(=O)Cc1cccnc1)NCC(F)(F)Oc1ccc(F)cc1)C(=O)C(=O)NC1CC1
OUT: < 100 nM

IN: Try this molecule too: N#CC1(NC(=O)[C@H](CC(F)(F)CC2CC2)NCC(F)(F)Oc2ccc(F)cc2)CC1
OUT: > 1000 nM

IN: Query N#CC1(NC(=O)[C@H](CS(=O)(=O)Cc2cccnc2)NCC(F)(F)Oc2ccc(F)cc2)CC1 next
OUT: > 1000 nM

IN: Quick one: CC#C[C@H](N[C@@H](CSCc1cccnc1)C(=O)NC1(C#N)CC1)C(F)(F)Oc1ccc(SC)cc1
OUT: > 1000 nM

IN: Next: CC#C[C@H](N[C@@H](CS(=O)(=O)Cc1ccccn1)C(=O)NC1(C#N)CC1)C(F)(F)Oc1ccc(S(C)(=O)=O)cc1
OUT: > 1000 nM

====

# TARGET DESC: Human cathepsin B (Homo sapiens, UniProt P07858)
# PROTOCOL NOTES: Cathepsin B Assay
# Assay type: biochemical
# ASSAY CONTEXT: apparent inhibition constant; substrate Z-FR-AMC, pH 6, 30 min incubation at room temperature; read-out: CATB (Ki)
VALUE TYPE: Ki

Example cases with answers are listed next.
>>> measured("CC#C[C@H](N[C@@H](CSCc1ccccn1)C(=O)NC1(C#N)CC1)C(F)(F)Oc1ccc(SC)cc1")
"> 1000 nM"
>>> measured("CC#C[C@H](N[C@@H](CS(=O)(=O)Cc1cccnc1)C(=O)NC1(C#N)CC1)C(F)(F)Oc1ccc(S(C)(=O)=O)cc1")
"> 1000 nM"
>>> measured("CC[C@H](NC(=O)[C@H](CS(=O)(=O)Cc1cccnc1)NCC(F)(F)Oc1ccc(F)cc1)C(=O)C(=O)NC1CC1")
"< 100 nM"
>>> measured("CC#C[C@H](N[C@@H](CS(=O)(=O)CC1CC1)C(=O)NC1(C#N)CC1)C(F)(F)Oc1ccc(S(C)(=O)=O)cc1")
"> 1000 nM"
>>> measured("N#CC1(NC(=O)[C@H](CS(=O)(=O)Cc2cccnc2)NCC(F)(F)Oc2ccc(F)cc2)CC1")
"> 1000 nM"
>>> measured("CC[C@H](NC(=O)[C@H](CS(=O)(=O)CC1CC1)NCC(F)(F)Oc1ccc(F)cc1)C(=O)C(=O)NC1CC1")
"< 100 nM"
>>> measured("CC#C[C@H](N[C@@H](CSCc1cccnc1)C(=O)NC1(C#N)CC1)C(F)(F)Oc1ccc(SC)cc1")
"> 1000 nM"
>>> measured("CC#C[C@H](N[C@@H](CS(=O)(=O)Cc1ccc[n+]([O-])c1)C(=O)NC1(C#N)CC1)C(F)(F)Oc1ccc(S(C)(=O)=O)cc1")
"> 1000 nM"
>>> measured("CC#C[C@H](N[C@@H](CS(=O)(=O)Cc1ccccn1)C(=O)NC1(C#N)CC1)C(F)(F)Oc1ccc(S(C)(=O)=O)cc1")
"> 1000 nM"
>>> measured("CC[C@H](NC(=O)[C@H](CC(F)(F)CC1CC1)NCC(F)(F)Oc1ccc(F)cc1)C(=O)C(=O)NC1CC1")
"< 1000 nM"

IN: Look up Ki for this compound: CC#C[C@H](N[C@@H](CSCC1CC1)C(=O)NC1(C#N)CC1)C(F)(F)Oc1ccc(SC)cc1
OUT: < 100 nM

IN: Now consider N#CC1(NC(=O)[C@H](CC(F)(F)CC2CC2)NCC(F)(F)Oc2ccc(F)cc2)CC1 .
OUT: > 1000 nM

====

# TARGET DESC: Human cathepsin F (Homo sapiens, UniProt Q9UBX1)
# Sequence (Q9UBX1 271-484): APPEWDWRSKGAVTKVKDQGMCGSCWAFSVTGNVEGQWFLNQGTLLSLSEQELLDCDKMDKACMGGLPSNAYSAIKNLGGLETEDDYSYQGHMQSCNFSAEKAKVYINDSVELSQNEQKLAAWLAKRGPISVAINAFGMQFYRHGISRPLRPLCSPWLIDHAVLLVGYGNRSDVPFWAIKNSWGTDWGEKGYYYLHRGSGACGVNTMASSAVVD
pKi: −log10 of the molar value.
VALUE TYPE: pKi

# count of solved cases: 3
>>> measured("CC[C@H](NC(=O)[C@H](CS(=O)(=O)Cc1cccnc1)NCC(F)(F)Oc1ccc(F)cc1)C(=O)C(=O)NC1CC1")
"> 6.00"
>>> measured("CC#C[C@H](N[C@@H](CSCC1CC1)C(=O)NC1(C#N)CC1)C(F)(F)Oc1ccc(SC)cc1")
"< 6.00"
>>> measured("CC#C[C@H](N[C@@H](CS(=O)(=O)Cc1ccc[n+]([O-])c1)C(=O)NC1(C#N)CC1)C(F)(F)Oc1ccc(S(C)(=O)=O)cc1")
"< 6.00"

IN: Record request: pKi value, item CC#C[C@H](N[C@@H](CS(=O)(=O)Cc1cccnc1)C(=O)NC1(C#N)CC1)C(F)(F)Oc1ccc(S(C)(=O)=O)cc1
OUT: < 6.00

IN: And for CC#C[C@H](N[C@@H](CSCc1ccccn1)C(=O)NC1(C#N)CC1)C(F)(F)Oc1ccc(SC)cc1 ?
OUT: < 6.00

IN: Follow-up item: CC#C[C@H](N[C@@H](CSCc1cccnc1)C(=O)NC1(C#N)CC1)C(F)(F)Oc1ccc(SC)cc1
OUT: < 6.00

IN: Next molecule: N#CC1(NC(=O)[C@H](CS(=O)(=O)Cc2cccnc2)NCC(F)(F)Oc2ccc(F)cc2)CC1
OUT: < 6.00

IN: Queued: CC#C[C@H](N[C@@H](CS(=O)(=O)Cc1ccccn1)C(=O)NC1(C#N)CC1)C(F)(F)Oc1ccc(S(C)(=O)=O)cc1
OUT: < 6.00

IN: Next record, please: CC#C[C@H](N[C@@H](CS(=O)(=O)CC1CC1)C(=O)NC1(C#N)CC1)C(F)(F)Oc1ccc(S(C)(=O)=O)cc1
OUT: < 6.00

IN: Same thing, different molecule: CC[C@H](NC(=O)[C@H](CS(=O)(=O)CC1CC1)NCC(F)(F)Oc1ccc(F)cc1)C(=O)C(=O)NC1CC1
OUT: > 6.00

====

Notes on Ki obtained with Human cathepsin S (Homo sapiens, UniProt P25774).
Sequence (P25774 115-331): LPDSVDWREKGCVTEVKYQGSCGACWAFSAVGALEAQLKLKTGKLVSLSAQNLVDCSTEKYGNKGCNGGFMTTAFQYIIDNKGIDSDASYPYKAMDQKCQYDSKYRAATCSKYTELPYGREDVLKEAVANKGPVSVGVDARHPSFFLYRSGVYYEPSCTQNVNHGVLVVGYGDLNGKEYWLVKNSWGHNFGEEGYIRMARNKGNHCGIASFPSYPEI

Would you please look over these solved cases?
>>> measured("CC[C@H](NC(=O)[C@H](CC(F)(F)CC1CC1)NCC(F)(F)Oc1ccc(F)cc1)C(=O)C(=O)NC1CC1")
"< 100 nM"
>>> measured("N#CC1(NC(=O)[C@H](CC(F)(F)CC2CC2)NCC(F)(F)Oc2ccc(F)cc2)CC1")
"< 1000 nM"
>>> measured("CC[C@H](NC(=O)[C@H](CS(=O)(=O)CC1CC1)NCC(F)(F)Oc1ccc(F)cc1)C(=O)C(=O)NC1CC1")
"< 100 nM"
>>> measured("CC#C[C@H](N[C@@H](CSCc1ccccn1)C(=O)NC1(C#N)CC1)C(F)(F)Oc1ccc(SC)cc1")
"< 100 nM"
>>> measured("CC#C[C@H](N[C@@H](CSCC1CC1)C(=O)NC1(C#N)CC1)C(F)(F)Oc1ccc(SC)cc1")
"< 1000 nM"
>>> measured("CC#C[C@H](N[C@@H](CS(=O)(=O)Cc1cccnc1)C(=O)NC1(C#N)CC1)C(F)(F)Oc1ccc(S(C)(=O)=O)cc1")
"< 100 nM"
>>> measured("CC#C[C@H](N[C@@H](CS(=O)(=O)CC1CC1)C(=O)NC1(C#N)CC1)C(F)(F)Oc1ccc(S(C)(=O)=O)cc1")
"< 100 nM"
>>> measured("CC[C@H](NC(=O)[C@H](CS(=O)(=O)Cc1cccnc1)NCC(F)(F)Oc1ccc(F)cc1)C(=O)C(=O)NC1CC1")
"< 100 nM"

IN: # Ki lookup, item N#CC1(NC(=O)[C@H](CS(=O)(=O)Cc2cccnc2)NCC(F)(F)Oc2ccc(F)cc2)CC1
OUT: < 100 nM

IN: // next record CC#C[C@H](N[C@@H](CSCc1cccnc1)C(=O)NC1(C#N)CC1)C(F)(F)Oc1ccc(SC)cc1
OUT: < 100 nM

IN: Subsequent entry: CC#C[C@H](N[C@@H](CS(=O)(=O)Cc1ccccn1)C(=O)NC1(C#N)CC1)C(F)(F)Oc1ccc(S(C)(=O)=O)cc1
OUT: < 100 nM

IN: Try this compound too: CC#C[C@H](N[C@@H](CS(=O)(=O)Cc1ccc[n+]([O-])c1)C(=O)NC1(C#N)CC1)C(F)(F)Oc1ccc(S(C)(=O)=O)cc1
OUT: < 100 nM

The measurements presented in this section are drawn from patent EP2361243B9.
